- System: M14 melanoma
- Protocol summary: NCI-60 one-dose screen, 48 h
- Run conditions: 10 µM unless noted
The panel holds about 83,000 compounds, 20% with a hit somewhere; the sample as a whole holds those more often. Activity calls are given as the source filed them. Rule for the calls: active = growth percent below 10; inactive = the rest.
Could you please pick one outcome from this set? YES for active, NO for inactive

Solved entries:
{"Molecule": "O=CN1N=C(c2ccc(Cl)cc2)CC1c1cccc(Nc2ccnc3cc(Cl)ccc23)c1 (stereo not given)", "Answer label": "NO"}
{"Molecule": "CCCCCCCCCCNCCSS(=O)(=O)O", "Answer label": "NO"}
{"Molecule": "C/C=C(/C(=C/C)c1ccc(O)cc1)c1ccc(O)cc1", "Answer label": "NO"}
{"Molecule": "CC1c2ccccc2-c2ccccc2N1C (stereo not given)", "Answer label": "NO"}

## Input Could you please tell me the result logged for C[N+]1(C)C2CC[C@@H]1CC(OC(=O)C(O)c1ccccc1)C2 (stereo not given in full) in this assay?
## Output NO

## Input Could you please tell me the result logged for COc1cnc2c(c1)C(=O)c1c-2n(CCCNC(C)C)c(=O)c2cc(F)ccc12 in this assay?
## Output YES

---

- Tested on: 786-0 renal
- Protocol summary: NCI-60 one-dose screen, 48 h
- Run conditions: 10 µM unless noted
About 83,000 compounds went through this panel and 20% of them were active in at least one assay; those are over-represented in the sample as a whole. Calls of active or inactive are those of the source. Rule for the calls: active = growth percent below 10; inactive = the rest.
Could you please pick one outcome from this set? active, inactive

## Input Could you please tell me the result logged for CCN(CC)CCNCC(=O)Oc1ccc(/C=C/C(=O)CC(=O)/C=C/c2ccc(OC(=O)CNCCN(CC)CC)c(OC)c2)cc1OC in this assay?
## Output active

## Input Could you please tell me the result logged for Cc1ccccc1NC(=O)N/C(N)=N/c1nc2ccccc2s1 in this assay?
## Output inactive

## Input Could you please tell me the result logged for Fc1ccccc1C1c2ccccc2-c2nccn21 (configuration not stated) in this assay?
## Output inactive

## Input Could you please tell me the result logged for Cc1cnc2nc(-c3ccc(N(C)C)cc3)cn2c1 in this assay?
## Output inactive

## Input Could you please tell me the result logged for O=C(/C=C/c1ccc(C(F)(F)F)cc1)c1ccc(Nc2nc(NCCO)nc(NCCO)n2)cc1 in this assay?
## Output inactive

## Input Could you please tell me the result logged for COc1ccc(C2CC(c3ccc4c(c3)OCO4)=NN2C=O)cc1 (configuration not stated) in this assay?
## Output inactive

## Input Could you please tell me the result logged for COc1ccc2c(c1)[n+](=O)c(C(=O)/C=C/c1cc(OC)c(OC)c(OC)c1)c(C)n2[O-] in this assay?
## Output inactive

## Input Could you please tell me the result logged for COc1cnc2c(c1)C(=O)c1c-2n(CCCNC2=NCCS2)c(=O)c2cc(F)ccc12 in this assay?
## Output active

## Input Could you please tell me the result logged for Nc1ccccc1-c1ccn[nH]1 in this assay?
## Output inactive

## Input Could you please tell me the result logged for O=C(CNC(=O)c1cccc2ccccc12)Nc1ccccc1Cc1ccccc1 in this assay?
## Output inactive

## Input Could you please tell me the result logged for CCOC(=O)c1sc(NC(=O)COc2cccc(/C=C3\Cc4ccc(Cl)cc4C3=O)c2)nc1C in this assay?
## Output inactive

## Input Could you please tell me the result logged for FCc1ncc(-c2ccc(C(F)(F)F)cc2)c(NC2CCCCCC2)n1 in this assay?
## Output active

## Input Could you please tell me the result logged for COc1ccc(OC)c2c1CCC1(C2)NC(=O)NC1=O (configuration not stated) in this assay?
## Output inactive

## Input Could you please tell me the result logged for N#Cc1c(-c2ccccc2)cc(-c2ccccc2)n(CCC(=O)O)c1=O in this assay?
## Output inactive

Values compiled from PubChem BioAssay (NCI).
